test system: CRL-7250; experiment: Cytotoxic Profiling of Annotated Libraries Using Quantitative High-Throughput Screening (AID 1296008); conditions: Five cell lines viability, CellTiter-Glo ATP luminescence, 48-72 h; stronger effect = lower value; also: % is scaled to controls: 0 for no effect and ±100 for the full control effect; nearly all actives have a fitted effect of over 60% in size
Inconclusive results are not listed. Active and inactive are the calls of the source. Calls follow the shape of the dose curve; as a rule, active = well fitted inhibition curve with a large enough effect; inconclusive = small, poorly fitted or top-dose-only effect; inactive = flat fitted curve, though single readings scatter.

molecule: COC1/C=C/C(C)(O)C(SCC(N)C(=O)O)CC(=O)OC(C)C(C)CC/C=C/1C (stereo not drawn)
subjectOfTest: CRL-7250
max response: 1.64% (inactive)

molecule: CC(O)CO[C@@H]1O[C@H](CO)[C@@H](O)[C@H](O)[C@H]1O (stereo partly drawn)
subjectOfTest: CRL-7250
max response: -3.19% (inactive)

molecule: CC(=O)/C=C/[C@H]1[C@](C)(O)[C@@H](O)[C@H](OC(C)=O)C2C(C)(C)CCC[C@@]21C (stereo partly drawn)
subjectOfTest: CRL-7250
max response: 4.5% (inactive)

molecule: C/C=C/C1=CC2=C(CO1)C(=O)C(C)(O)C(OC(=O)c1c(C)cc(OC)cc1O)C2 (stereo not drawn)
subjectOfTest: CRL-7250
max response: -7.89% (inactive)

molecule: CC1(C)CCCC2(C)C(C(=O)O)=CCC12 (stereo not drawn)
subjectOfTest: CRL-7250
max response: -16.1% (inactive)

molecule: CC1CCCCN1S(=O)(=O)c1ccc(N2CCCC2=O)cc1 (stereo not drawn)
subjectOfTest: CRL-7250
max response: -8.63% (inactive)

molecule: COC1CC(O[C@H]2CC[C@@]3(C)C(CCC4C3[C@H](OC(C)=O)[C@@H](OC(=O)/C=C/c3ccccc3)[C@]3(C)C(C(C)=O)CC[C@]43O)C2)OC(C)C1OC1CC(OC)C(OC2CC(OC)C(OC3OC(C)C(OC4OC(CO)C(O)C(O)C4O)C(OC)C3O)C(C)O2)C(C)O1 (stereo partly drawn)
subjectOfTest: CRL-7250
max response: -13.2% (inactive)

molecule: CC1(C)CCC[C@]2(C)[C@H]3CC(=O)O[C@]3(C)CC[C@@H]12
subjectOfTest: CRL-7250
max response: -21.8% (inactive)

====

This section presents compounds with their documented max response values.
system: NIH3T3; experiment: Cytotoxic Profiling of Annotated Libraries Using Quantitative High-Throughput Screening (AID 1296008); conditions: Five cell lines viability, CellTiter-Glo ATP luminescence, 48-72 h; stronger effect = lower value; also: % is scaled to controls: 0 for no effect and ±100 for the full control effect; nearly all actives have a fitted effect of over 60% in size
Inconclusive results are not listed. Where a SMILES comes first, the peptide text is derived from it. [ ]: non-standard residue; d: D form. ξ: configuration not given here. ξPhe(βξ-Me) = CC(c1ccccc1)C(N)C(=O)O; GABA = NCCCC(=O)O
parameter: max response (%)

compound: Cc1cc(=O)oc2c(C=O)c(O)ccc12
subjectOfTest: NIH3T3
assayValue: -0.325

compound: C=C1CCC2C(C)(C)C(O)CCC2(C)C1CCC(C)CCO (stereo unspecified)
subjectOfTest: NIH3T3
assayValue: -0.535

compound: CC1(C)CC[C@]2(C(=O)O)[C@H](O)C[C@]3(C)C(=CCC4[C@@]5(C)CC[C@H](O[C@@H]6O[C@H](CO[C@@H]7OC[C@H](O)[C@H](O)[C@H]7O[C@@H]7OC[C@@H](O)[C@H](O)[C@H]7O)[C@@H](O)[C@H](O)[C@H]6O[C@@H]6O[C@H](CO)[C@@H](O)[C@H](O)[C@H]6O)C(C)(C)C5CC[C@]43C)[C@@H]2C1 (stereo partly specified)
subjectOfTest: NIH3T3
assayValue: -6.3

compound: CC1NC(=O)CCCNC(=O)C(Cc2c[nH]c3ccccc23)NC(=O)C(C)NC(=O)C(C(C)C)NC(=O)C(C(C)c2ccccc2)NC(=O)C(C(C)C)NC1=O (stereo not drawn) (cyclo([GABA]AV[ξPhe(βξ-Me)]VAW); configuration not given here)
subjectOfTest: NIH3T3
assayValue: -4.21

compound: COc1cc(OC)cc(C(=O)Nc2ccc(Cl)c(-c3nc4ccc(N(C)C)cc4[nH]3)c2)c1
subjectOfTest: NIH3T3
assayValue: -0.734

compound: C=C1CCC2C(C)(C(=O)O)CCCC2(C)C1CC/C(=C\CO)CO (stereo unspecified)
subjectOfTest: NIH3T3
assayValue: 3.98
